The reported measurements were obtained from ChEMBL document CHEMBL3259739.

Measurement protocol: AUC (0 to infinity) in Sprague-Dawley rat at 5 mg/kg, po
Type: ADME, organism-based
Set-up: time infinity, dose 5 mg/kg, route oral
Applied conditions: plasma
Measure: AUC(0-inf) (ng·h/mL)
Response body: numeric value in ng·h/mL, unit text excluded.

Enquiry: Recorded AUC(0-inf) for `NC(=O)c1sc(-c2ccnc(N)n2)nc1-c1ccc(Cl)cc1Cl` , please?
Return: 85.7

====

Assayed system: CDC7/DBF4 (Cell division cycle 7-related protein kinase/Activator of S phase kinase) (Homo sapiens)
Sequence (Q9UBU7 whole entry): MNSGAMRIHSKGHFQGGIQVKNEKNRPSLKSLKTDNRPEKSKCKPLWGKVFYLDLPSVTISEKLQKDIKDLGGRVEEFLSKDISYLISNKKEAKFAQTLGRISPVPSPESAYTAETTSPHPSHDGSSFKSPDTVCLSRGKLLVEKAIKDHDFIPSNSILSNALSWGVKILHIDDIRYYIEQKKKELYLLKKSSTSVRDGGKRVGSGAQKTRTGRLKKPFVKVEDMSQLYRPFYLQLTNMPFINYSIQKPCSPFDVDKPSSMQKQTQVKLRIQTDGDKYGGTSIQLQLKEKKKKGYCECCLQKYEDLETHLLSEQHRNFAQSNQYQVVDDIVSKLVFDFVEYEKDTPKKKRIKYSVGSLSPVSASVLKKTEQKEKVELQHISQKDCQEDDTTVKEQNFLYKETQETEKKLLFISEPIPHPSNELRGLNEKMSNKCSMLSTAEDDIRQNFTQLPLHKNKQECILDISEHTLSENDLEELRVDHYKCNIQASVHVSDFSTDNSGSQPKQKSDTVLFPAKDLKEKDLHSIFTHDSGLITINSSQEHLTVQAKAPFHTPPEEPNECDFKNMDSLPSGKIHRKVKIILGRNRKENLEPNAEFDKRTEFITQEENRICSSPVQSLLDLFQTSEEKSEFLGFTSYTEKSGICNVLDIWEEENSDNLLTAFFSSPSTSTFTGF
Sequence (O00311 whole entry): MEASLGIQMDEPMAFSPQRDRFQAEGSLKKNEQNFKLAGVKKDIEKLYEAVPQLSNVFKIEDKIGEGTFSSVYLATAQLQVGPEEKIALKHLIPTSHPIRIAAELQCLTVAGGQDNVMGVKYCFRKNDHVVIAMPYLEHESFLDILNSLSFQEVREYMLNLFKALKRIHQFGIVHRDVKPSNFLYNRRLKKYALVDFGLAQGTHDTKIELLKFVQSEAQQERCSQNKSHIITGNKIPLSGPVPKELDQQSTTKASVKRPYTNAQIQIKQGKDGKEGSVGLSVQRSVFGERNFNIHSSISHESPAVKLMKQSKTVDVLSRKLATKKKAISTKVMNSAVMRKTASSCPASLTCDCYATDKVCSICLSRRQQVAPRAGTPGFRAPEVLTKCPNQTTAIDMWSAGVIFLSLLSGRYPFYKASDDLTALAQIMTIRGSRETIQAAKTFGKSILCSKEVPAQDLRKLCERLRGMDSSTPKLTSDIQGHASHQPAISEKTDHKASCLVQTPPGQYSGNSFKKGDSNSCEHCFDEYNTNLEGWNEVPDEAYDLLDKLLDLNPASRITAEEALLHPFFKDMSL
Measurement protocol: Inhibition of Cdc7/Dbf4 (unknown origin) using 54 uM of ATP as substrate by AlphaScreen assay
Type: protein-complex assay
Measure: pIC50
Quick note: pIC50 means taking -log10 of the concentration in moles per liter.

Enquiry: Entry under review: `NC(=O)c1sc(-c2ccnc(N)n2)nc1-c1ccc(Cl)cc1Cl` . Reported pIC50?
Return: 7.07
